Molecular target: JMJD2C (Homo sapiens (Human), UniProt Q9H3R0)
Sequence (Q9H3R0 2-372): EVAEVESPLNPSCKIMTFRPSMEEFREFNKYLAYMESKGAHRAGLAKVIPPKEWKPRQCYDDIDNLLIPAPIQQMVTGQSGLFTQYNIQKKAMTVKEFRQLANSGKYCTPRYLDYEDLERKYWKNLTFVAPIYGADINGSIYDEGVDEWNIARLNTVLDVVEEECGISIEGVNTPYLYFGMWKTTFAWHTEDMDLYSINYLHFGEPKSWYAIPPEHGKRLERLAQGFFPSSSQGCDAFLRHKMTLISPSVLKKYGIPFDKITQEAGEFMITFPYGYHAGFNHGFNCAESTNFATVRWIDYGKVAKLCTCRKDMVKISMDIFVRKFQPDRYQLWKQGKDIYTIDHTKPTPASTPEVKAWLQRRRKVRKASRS
pIC50: −log10 of the molar value.
measured_metric: pIC50

O=C(O)c1ccncc1NCC1CCOc2cc(F)ccc21 (stereo not shown) = ≥ 7.00
